test method notes: Protein binding in human plasma assessed as unbound fraction at 10 uM measured after 16 hrs by LC-MS/MS based equilibrium dialysis method
Type: ADME, cell-free
// values below are reported fraction unbound at 16 h, 10 µM

[
  {
    "query smiles": "C[C@@H]1CN2c3c(cc4c(-n5ncnc5[C@@H](C)O)noc4c3F)CC3(C(=O)NC(=O)NC3=O)[C@H]2[C@H](C)O1",
    "fraction unbound at 16 h, 10 µM": 0.23
  },
  {
    "query smiles": "C[C@@H]1CN2c3c(cc4c(N5C(=O)OC[C@@H]5C)noc4c3F)CC3(C(=O)NC(=O)NC3=O)[C@H]2[C@H](C)O1",
    "fraction unbound at 16 h, 10 µM": 0.18
  },
  {
    "query smiles": "COCCNc1ncnn1-c1noc2c(F)c3c(cc12)CC1(C(=O)NC(=O)NC1=O)[C@H]1[C@H](C)O[C@H](C)CN31",
    "fraction unbound at 16 h, 10 µM": 0.077
  },
  {
    "query smiles": "C[C@@H]1CN2c3c(cc4c(-n5ncnc5[C@H](C)O)noc4c3F)CC3(C(=O)NC(=O)NC3=O)[C@H]2[C@H](C)O1",
    "fraction unbound at 16 h, 10 µM": 0.21
  }
]

Source listed as ChEMBL document CHEMBL4725408.
